# system.tested: Neu5Ac(a2-3)Gal(b1-4)[Fuc(a1-3)]GlcNAc(b1-3)GalNAc
# protocol.description: glycan array binding signal (z-score within array); higher = stronger binding
# assay.context: glycan notation: IUPAC condensed, linker removed
Many of the other results were omitted from the sample, so the strongest signals are more common in it than they were.
Would you mind telling me the reported glycan array binding signal (z-score) of each entry?
Numbers only.

Consider the worked cases shown below.
binder	glycan array binding signal (z-score)
AT5G24760(45) (Arabidopsis thaliana), Q8LEB2 (protein) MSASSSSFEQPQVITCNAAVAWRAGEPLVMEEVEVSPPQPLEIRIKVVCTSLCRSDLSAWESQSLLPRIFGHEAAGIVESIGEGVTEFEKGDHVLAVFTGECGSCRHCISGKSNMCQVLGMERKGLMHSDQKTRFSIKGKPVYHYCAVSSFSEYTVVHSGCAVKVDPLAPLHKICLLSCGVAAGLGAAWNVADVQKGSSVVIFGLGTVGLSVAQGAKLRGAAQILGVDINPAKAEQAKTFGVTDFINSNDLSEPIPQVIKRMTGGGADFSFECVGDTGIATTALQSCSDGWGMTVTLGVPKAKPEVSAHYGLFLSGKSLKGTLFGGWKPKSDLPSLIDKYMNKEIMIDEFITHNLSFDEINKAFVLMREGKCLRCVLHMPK	3.17
Intelectin-1a (Mus musculus) (protein) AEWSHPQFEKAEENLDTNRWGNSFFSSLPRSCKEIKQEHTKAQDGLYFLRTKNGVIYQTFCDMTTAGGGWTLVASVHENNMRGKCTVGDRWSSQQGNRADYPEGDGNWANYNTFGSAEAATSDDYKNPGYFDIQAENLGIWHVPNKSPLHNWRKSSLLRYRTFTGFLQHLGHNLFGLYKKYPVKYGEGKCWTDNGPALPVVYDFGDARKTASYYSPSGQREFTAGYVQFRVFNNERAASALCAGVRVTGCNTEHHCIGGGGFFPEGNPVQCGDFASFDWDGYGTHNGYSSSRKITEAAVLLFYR	6.37
XL-35 (Xenopus laevis) (protein) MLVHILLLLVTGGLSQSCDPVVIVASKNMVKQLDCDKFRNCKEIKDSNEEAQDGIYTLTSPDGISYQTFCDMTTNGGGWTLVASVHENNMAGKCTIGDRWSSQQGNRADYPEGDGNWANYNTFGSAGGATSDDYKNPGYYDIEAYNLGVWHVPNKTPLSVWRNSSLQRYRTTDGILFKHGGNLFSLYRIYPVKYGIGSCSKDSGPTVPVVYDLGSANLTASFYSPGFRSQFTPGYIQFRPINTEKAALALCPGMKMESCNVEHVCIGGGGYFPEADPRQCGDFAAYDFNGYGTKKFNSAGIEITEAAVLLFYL	0.775

Okay, next one:
The recorded glycan array binding signal (z-score) for entry SP15308B-bot-339-22-339 (Bacteroides ovatus) (protein) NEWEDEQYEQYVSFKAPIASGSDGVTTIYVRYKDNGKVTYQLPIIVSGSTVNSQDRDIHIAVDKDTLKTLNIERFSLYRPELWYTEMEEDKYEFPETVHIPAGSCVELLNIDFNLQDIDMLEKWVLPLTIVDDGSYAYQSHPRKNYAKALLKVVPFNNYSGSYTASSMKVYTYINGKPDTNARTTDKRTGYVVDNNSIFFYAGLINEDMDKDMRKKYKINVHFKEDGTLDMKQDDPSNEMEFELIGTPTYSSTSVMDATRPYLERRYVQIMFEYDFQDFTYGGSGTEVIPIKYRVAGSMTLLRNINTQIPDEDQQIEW equals 2.38
